Parameter: Kcat. Scope: all listed entries.
- testName: Standard protocol for determination of kcat and KM (continuous spectrophotometric assay, Acetyl CoA hydrolysis at 235 nm)
- Format: biochemical
- testParameters: purified protein; about 23° C.; 20 mM HEPES pH 6.8, 10% ethylene glycol, 0.2 mM acetyl CoA
Give the value in min⁻¹ but do not write min⁻¹ after it.

Sample answers from the record:
SEQ ID NO: 366: GAT polypeptide (protein, 4A_1C2, GAT polypeptide) MIEVKPINAEDTYEIRHRILRPNQPLEACKYETDLLGGTFHLGGYYRGKLISIASFHQAEHSELEGQKQYQLRGMATLEEYREQKAGSTLIRHAEELLRKKGADLLWCNARTSASGYYKKLGFSEQGEVYDIPPIGPHILMYKKLT :: 20.4
SEQ ID NO: 281: GAT polypeptide (protein, 10_6D11, GAT polypeptide) MIEVKPINAEDTYEIRHRILRPNQPLEACKYETDLLGGTLHLGGYYRGKLVSIASFHQAEHPELEGQKQYQLRGMATLEGYREQKAGSTLIRHAEELLRKKGADLLWCNARTSASGYYKKLGFSEQGEVYDIPPVGPHILMYKKLT :: 62.4

Proceed to the following item.
Kcat in this record for SEQ ID NO: 269: GAT polypeptide (protein, 10_12D7, GAT polypeptide) MIEVKPINAEDTYEIRHRILRPNQPLEACKYETDLLGGTLHLGGYYRGKLISIASFHQAEHPELEGQKQYQLRGMATLEEYREQKAGSTLIRHAEELLRKKGADLLWCNARTSASGYYKKLGFSEQGEVYDIPPTGPHILMYKKLT : 77.3
